Assay: chemical genetic growth profiling, strain panel (AID 1159580);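 note: tested at 20 µM; growth read once vehicle control cultures reached saturation at 30 °C; 1 = growth at the plate median or of vehicle wells; lower values mean less growth of the strain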
Conditions: S. cerevisiae deletion strains, growth OD, locus YAL021C, strain ccr4, stronger effect = lower value
The whole screen tested about 5,500 compounds, of which about 2,000 (36%) were called active. About 18% were inconclusive and are not listed. This is one part of the list.
Assign normalized growth to each entry below.
Please respond with just the number, no unit label.

Exam item: Reported normalized growth, compound CC(C)c1nc(N(C)S(C)(=O)=O)nc(-c2ccc(F)cc2)c1/C=C/[C@@H](O)C[C@@H](O)CC(=O)O : ____
Marked response: 0.839

Exam item: Reported normalized growth, compound Clc1ccc(COC(Cn2ccnc2)c2ccc(Cl)cc2Cl)cc1 (stereo not given) : ____
Marked response: 0.0668

Exam item: Reported normalized growth, compound Clc1ccc(COC(Cn2ccnc2)c2ccc(Cl)cc2Cl)c(Cl)c1 (stereo not given) : ____
Marked response: 0.0668

Exam item: Reported normalized growth, compound NC1(C(=O)O)CC1 : ____
Marked response: 1.04

Exam item: Reported normalized growth, compound Cc1cccc(C)c1NC(=O)C1CCCCN1C (stereo not given) : ____
Marked response: 1.02

Exam item: Reported normalized growth, compound CC(=O)C1CCC2C3CCC4C[C@H](O)CCC4(C)C3C[C@H](O)C12C (stereo not given in full) : ____
Marked response: 0.96

Exam item: Reported normalized growth, compound CC(=O)OC/C=C(\C)CC/C=C(\C)CC/C=C(\C)CC/C=C(\C)CC/C=C(\C)CC/C=C(\C)CC/C=C(\C)CC/C=C(\C)CCC=C(C)C : ____
Marked response: 0.991

Exam item: Reported normalized growth, compound COc1ccc2c(c1)OCC(Cc1ccc(OC)c(OC(C)=O)c1)C2=O (stereo not given) : ____
Marked response: 0.974

Exam item: Reported normalized growth, compound Clc1ccc(CSC(Cn2ccnc2)c2ccc(Cl)cc2Cl)cc1 (stereo not given) : ____
Marked response: 0.067

Exam item: Reported normalized growth, compound O=c1[nH]c(=O)n(C2C[C@H](O)[C@@H](CO)O2)cc1C(F)(F)F (stereo not given in full) : ____
Marked response: 0.999

Exam item: Reported normalized growth, compound O=C(O)CCC1NCC2CC1CN1CCCCC21 (stereo not given) : ____
Marked response: 0.97

Exam item: Reported normalized growth, compound CC1(C)N([O-])[N+](=O)C1(C)Br (stereo not given) : ____
Marked response: 0.967

Exam item: Reported normalized growth, compound COc1ccc2c(c1)OCC(Cc1ccc(O)c(OC)c1)C2=O (stereo not given) : ____
Marked response: 0.982

Exam item: Reported normalized growth, compound Cc1ccc(C(=O)c2ccc(CC(=O)O)n2C)cc1 : ____
Marked response: 1.03

Exam item: Reported normalized growth, compound CC(=O)O[C@H]1CC[C@@]2(C)C(C[C@@H](OC(C)=O)[C@]3(C)C2CC[C@@]2(C)[C@H](c4ccoc4)OC(=O)[C@H]4O[C@]423)C1(C)C (stereo not given in full) : ____
Marked response: 1.01

Exam item: Reported normalized growth, compound C=C[C@@]1(C)CC(=O)[C@@]2(O)[C@](C)(O1)[C@@H](OC(C)=O)[C@@H](O)C1C(C)(C)CC[C@H](O)[C@@]12C (stereo not given in full) : ____
Marked response: 0.951

Exam item: Reported normalized growth, compound Clc1ccc(CO/N=C(/Cn2ccnc2)c2ccc(Cl)cc2Cl)c(Cl)c1 : ____
Marked response: 0.0719

Exam item: Reported normalized growth, compound Cc1cc(/C=C/c2ccc3cc(N(C)C)ccc3[n+]2C)c(C)n1-c1ccccc1 : ____
Marked response: 0.507

Exam item: Reported normalized growth, compound CC(=O)C1CC[C@H]2C3CC[C@H]4C[C@H](O)CC[C@]4(C)C3CC[C@]12C (stereo not given in full) : ____
Marked response: 0.936

Exam item: Reported normalized growth, compound CC(=O)O[C@@H]1CC2C(C)(C)[C@H](O)C=C[C@]2(C)C2CC[C@@]3(C)[C@H](c4ccoc4)OC(=O)C4OC43[C@@]21C (stereo not given in full) : ____
Marked response: 1.02
